assay.target: p300 TAZ2 domain (residues 1723–1812) (UniProt Q09472)
assay.notes: NMR titration; 1H-15N HSQC of 15N-TAZ2 (50 μM); NUT fragment or peptide titrated from 7.8 μM to 1000 μM; 200 mM phosphate buffer pH 6.3; overlays at TAZ2/NUT molar ratio 1:3; single-site binding model
assay.metric: pKd
// pKd is dimensionless: -log10 of concentration (M)

Field pKd (entry GMYPDPGLLSYINELC [F1c peptide (residues 403–418)] ) reads 3.94

binder FLADLLSPEKQRDPLALIEE [F1c peptide (residues 435–454)] , pKd observed: 3.02
